These data points were gathered from patent US20180319855A1.

experiment: Thermostability: relative bioluminescence activity after 30 min incubation; format: physicochemical; details: 30° C. for 30 min; CLZ-f
Experimental Endpoint: Thermostability, luminescence activity relative to wt-aequorin

Asked: Requested field: Thermostability, luminescence activity relative to wt-aequorin. Item: A179T: apoaequorin mutant, alanine 179 replaced by threonine (SEQ ID NO:11) (protein, mutant aequorin) SKLTSDFDNPRWIGRHKHMFNFLDVNHNGKISLDEMVYKASDIVINNLGATPEQAKRHKDAVEAFFGGAGMKYGVETDWPAYIEGWKKLATDELEKYAKNEPTLIRIWGDALFDIVDKDQNGAITLDEWKAYTKAAGIIQSSEDCEETFRVCDIDESGQLDVDEMTRQHLGFWYTMDPTCEKLYGGAVP
Given back: 0.96

Asked: Requested field: Thermostability, luminescence activity relative to wt-aequorin. Item: Q159G: apoaequorin mutant, glutamine 159 replaced by glycine (SEQ ID NO:7) (protein, mutant aequorin) SKLTSDFDNPRWIGRHKHMFNFLDVNHNGKISLDEMVYKASDIVINNLGATPEQAKRHKDAVEAFFGGAGMKYGVETDWPAYIEGWKKLATDELEKYAKNEPTLIRIWGDALFDIVDKDQNGAITLDEWKAYTKAAGIIQSSEDCEETFRVCDIDESGGLDVDEMTRQHLGFWYTMDPACEKLYGGAVP
Given back: 0.96

Asked: Requested field: Thermostability, luminescence activity relative to wt-aequorin. Item: QD + AT: apoaequorin double mutant Q159D + A179T (SEQ ID NO:17) (protein, mutant aequorin) SKLTSDFDNPRWIGRHKHMFNFLDVNHNGKISLDEMVYKASDIVINNLGATPEQAKRHKDAVEAFFGGAGMKYGVETDWPAYIEGWKKLATDELEKYAKNEPTLIRIWGDALFDIVDKDQNGAITLDEWKAYTKAAGIIQSSEDCEETFRVCDIDESGDLDVDEMTRQHLGFWYTMDPTCEKLYGGAVP
Given back: 1.05

Asked: Requested field: Thermostability, luminescence activity relative to wt-aequorin. Item: A123D: apoaequorin mutant, alanine 123 replaced by aspartic acid (SEQ ID NO:10) (protein, mutant aequorin) SKLTSDFDNPRWIGRHKHMFNFLDVNHNGKISLDEMVYKASDIVINNLGATPEQAKRHKDAVEAFFGGAGMKYGVETDWPAYIEGWKKLATDELEKYAKNEPTLIRIWGDALFDIVDKDQNGDITLDEWKAYTKAAGIIQSSEDCEETFRVCDIDESGQLDVDEMTRQHLGFWYTMDPACEKLYGGAVP
Given back: 0.82

Asked: Requested field: Thermostability, luminescence activity relative to wt-aequorin. Item: QD + ND: apoaequorin double mutant Q159D + N121D (SEQ ID NO:13) (protein, mutant aequorin) SKLTSDFDNPRWIGRHKHMFNFLDVNHNGKISLDEMVYKASDIVINNLGATPEQAKRHKDAVEAFFGGAGMKYGVETDWPAYIEGWKKLATDELEKYAKNEPTLIRIWGDALFDIVDKDQDGAITLDEWKAYTKAAGIIQSSEDCEETFRVCDIDESGDLDVDEMTRQHLGFWYTMDPACEKLYGGAVP
Given back: 0.81

Asked: Requested field: Thermostability, luminescence activity relative to wt-aequorin. Item: Q159T: apoaequorin mutant, glutamine 159 replaced by threonine (SEQ ID NO:6) (protein, mutant aequorin) SKLTSDFDNPRWIGRHKHMFNFLDVNHNGKISLDEMVYKASDIVINNLGATPEQAKRHKDAVEAFFGGAGMKYGVETDWPAYIEGWKKLATDELEKYAKNEPTLIRIWGDALFDIVDKDQNGAITLDEWKAYTKAAGIIQSSEDCEETFRVCDIDESGTLDVDEMTRQHLGFWYTMDPACEKLYGGAVP
Given back: 0.92

Asked: Requested field: Thermostability, luminescence activity relative to wt-aequorin. Item: Q159D: apoaequorin mutant, glutamine 159 replaced by aspartic acid (SEQ ID NO:5) (protein, mutant aequorin) SKLTSDFDNPRWIGRHKHMFNFLDVNHNGKISLDEMVYKASDIVINNLGATPEQAKRHKDAVEAFFGGAGMKYGVETDWPAYIEGWKKLATDELEKYAKNEPTLIRIWGDALFDIVDKDQNGAITLDEWKAYTKAAGIIQSSEDCEETFRVCDIDESGDLDVDEMTRQHLGFWYTMDPACEKLYGGAVP
Given back: 0.95

Asked: Requested field: Thermostability, luminescence activity relative to wt-aequorin. Item: S157D: apoaequorin mutant, serine 157 replaced by aspartic acid (SEQ ID NO:12) (protein, mutant aequorin) SKLTSDFDNPRWIGRHKHMFNFLDVNHNGKISLDEMVYKASDIVINNLGATPEQAKRHKDAVEAFFGGAGMKYGVETDWPAYIEGWKKLATDELEKYAKNEPTLIRIWGDALFDIVDKDQNGAITLDEWKAYTKAAGIIQSSEDCEETFRVCDIDEDGQLDVDEMTRQHLGFWYTMDPACEKLYGGAVP
Given back: 0.77

Asked: Requested field: Thermostability, luminescence activity relative to wt-aequorin. Item: Aeq-wt: wild-type aequorin: apoaequorin of Aequorea victoria (SEQ ID NO:1) reconstituted with coelenterazine (protein, listed as Aequorea aequorea, reconstituted with coelenterazine; SITE (1)..(189) wild-type aequorin) SKLTSDFDNPRWIGRHKHMFNFLDVNHNGKISLDEMVYKASDIVINNLGATPEQAKRHKDAVEAFFGGAGMKYGVETDWPAYIEGWKKLATDELEKYAKNEPTLIRIWGDALFDIVDKDQNGAITLDEWKAYTKAAGIIQSSEDCEETFRVCDIDESGQLDVDEMTRQHLGFWYTMDPACEKLYGGAVP
Given back: 1.00
